Value source: PubChem BioAssay (NCI)

System: SK-OV-3 ovarian
Experiment: NCI-60 one-dose screen, 48 h (100 = growth as untreated, 0 = no growth, -100 = all killed)
Details: 10 µM unless noted
Procedure: Growth inhibition of the SK-OV-3 human tumor cell line is measured as a screen for anti-cancer activity. Cells are grown in 96 well plates and exposed to the test compound for 48 hours. Compounds are tested at a single concentration, which is 10^-5 M for most compounds. The reported endpoint is percent growth (GI% or GIPRCNT), where numbers from 0 - 100% represent growth inhibition, and numbers from -100% - 0 represent cell death. For example, a value of 40 represents 60% growth inhibition. […]
The panel holds about 83,000 compounds, 20% with a hit somewhere; the sample as a whole holds those more often. Calls of active or inactive are those of the source. How the source made its calls: active means growth percent below 10; inactive means the rest.
Reported growth values are given for each entry in this list.

molecule | growth
S=C(c1cccs1)N1CCN(c2cccc(Cl)c2)CC1 | 107% (inactive)
CCc1cccc2c3c(sc12)C(c1ccc(Cl)cc1)C(C#N)=C(N)O3 (stereo not given) | 58.3% (inactive)
CC(=O)CC(c1cccs1)c1c(-c2ccccc2)[nH]c2ccccc12 (stereo not given) | 90.1% (inactive)
COc1cc(OCc2cccc(-c3ccc(C(O)c4nccs4)cc3)c2C)cc(OC)c1CNCCNC(C)=O (stereo not given) | 113% (inactive)
O=C(CCCCCCSc1nc(-c2ccccc2)cc(-c2ccccc2)n1)NO | 47.8% (inactive)
Cc1cc(=O)oc2cc(OC(=O)CN3CCN(C)CC3)ccc12 | 107% (inactive)
CCCCNC(=O)Oc1ccc(/C(=C(\C)c2ccc(Cl)cc2)c2ccc(OCCN3CCCCC3)cc2)cc1 | 68.8% (inactive)
COc1cc(CCCO)c(OC)c(OC)c1OC | 107% (inactive)
C[C@H]1[C@H]2[C@H]3CC[C@@H]4[C@@]5(C)CC[C@H](O)C(C)(C)[C@@H]5CC[C@@]4(C)[C@]3(C)CC[C@]23CO[C@]1(C)[C@@H](C(=O)/C=C\c1cccnc1)C3 | 77.8% (inactive)
CCOC(=O)c1cn2ncnc(Oc3ccc(NC(=O)NCCN(C)C)c(Cl)c3)c2c1C | 94.1% (inactive)
